Protocol Summary: chemical genetic growth profiling, strain panel (AID 1159580);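 note: tested at 20 µM; growth read once vehicle control cultures reached saturation at 30 °C; 1 = growth at the plate median or of vehicle wells; lower values mean less growth of the strain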
Measurement Parameters: S. cerevisiae deletion strains, growth OD, locus YDL005C, strain med2, active compounds read low
Among all 5,500 compounds or so, about 2,000 (36%) were called active. Another 18% or so got no clear call; they are omitted. Some of the results follow.
# note: boundary value 1 maps to class 0; normalized growth below it maps to class 1

Examples from the recorded data:
Cc1occc(=O)c1O    class 1
O=C(NC(=O)c1c(F)cccc1F)Nc1ccc(Cl)cc1    class 0
Cc1c(O)c(O)cc2c1CC=C1[C@@]2(C)CC[C@@]2(C)C3C[C@](C)(C(=O)O)CC[C@]3(C)CC[C@]12C (stereo partly specified)    class 1
O=C(O)c1ccccc1Nc1ccccc1    class 1

Consider now this further compound.
Query :: Hello, I'm reviewing records and need to know if normalized growth of `Oc1c(Cl)cc(Cl)c2cccnc12` is below 1. Could you check?
Result :: class 1

Measured values drawn from PubChem BioAssay AID1159580 for this set.
